- Tested on: Vero E6
- test: cell viability relative to DMSO; higher = less toxic
- measurementContext: 72 h; 10 nM
Record form. Attribute: cell viability. Fill in for each entry.
Numbers only here, please. The scale is %.

cell viability of c1nc2c(NC3CCCCC3)nc(Nc3ccc(N4CCOCC4)cc3)nc2[nH]1 [reversine] on Vero E6?
98.1

Kindly state the measured cell viability obtained for NCC(=O)N[C@@H](CCC(N)=O)C(=O)O [gly-gln] with Vero E6.
101

Lab note: need cell viability for CN1CCN(c2ccc3nc(-c4c(N)c5c(F)cccc5[nH]c4=O)[nH]c3c2)CC1 [dovitinib] on Vero E6, anyone have it?
96.5

Hello, I am looking for reported cell viability with Vero E6 for Oc1ccc2c3c1O[C@H]1c4c(c5ccccc5n4Cc4ccccc4)C[C@@]4(O)[C@@H](C2)N(CC2CC2)CC[C@]314 [N-benzylnaltrindole] . Could you help?
96

----------
Can you tell me cell viability for the items I'm about to list?
- Tested on: Caco-2
- test: cell viability relative to DMSO; higher = less toxic
- measurementContext: 72 h; 100 nM
Write the value in % as a bare number.

Form field - read-out: cell viability; system: Caco-2; submitted item: O=C(Nc1cccc(Cl)c1)Nc1ncc(CCNc2ncnc3ccsc23)s1
90.4

Request: cell viability, test system Caco-2, entry O=C1OC(CN2CCOCC2)CN1/N=C/c1ccc([N+](=O)[O-])o1 (centres undefined)
79.7

cell viability of CC(C)(S)C(N)C(=O)O (stereo in doubt) [penicillamine-(racemic)] on Caco-2?
96

For Caco-2, provide cell viability of O=c1ccc2cc3ccoc3cc2o1 please.
101

Checklist item: cell viability tested on Caco-2, entry C[C@@H]1COCCN1c1cc(=O)n2c(n1)N(Cc1cncc(Cl)c1)[C@H](C(F)(F)F)CC2 , value?
80.6

Report cell viability for CC[C@@H]1C(=O)N(C)c2cnc(Nc3ccc(C(=O)N[C@H]4CC[C@H](N5CCN(CC6CC6)CC5)CC4)cc3OC)nc2N1C(C)C tested on Caco-2.
74

Quick check: cell viability on Caco-2, item FC(F)(F)c1ccccc1-c1cc(C(F)(F)F)c2[nH]c(C3=NOC4(CCCCC4)C3)nc2c1 ?
96.8

Give cell viability (Caco-2) of the following compound: NCC(=O)N[C@@H](CCC(N)=O)C(=O)O
92.9

For the record Nc1nc2ccc(Cl)cc2c2nc(-c3ccco3)nn12 , what value of cell viability is listed for Caco-2?
104

----------
- Test system: U2OS
- test: cell viability relative to DMSO; higher = less toxic
- measurementContext: 72 h; 1000 nM
experimentalEndpoint: cell viability (%)
Kindly answer with a numeric value in %, unit omitted.

Bench note: what cell viability did CC(C)NC(=O)N1CC[C@H](NC2=Nc3cc(F)ccc3N(CC(F)F)c3ccc(Cl)cc32)C1 show?
93.4

Given NC(=O)CN1CC(O)CC1=O (stereo not given) , state its recorded cell viability.
100

What value of cell viability has been reported for the following compound? COc1ccc(C(=O)/C(Cc2cc(OC)c(OC)c(OC)c2)=C(\C(=O)O)c2ccc3c(c2)OCO3)cc1
96.2

Please report the recorded cell viability for C[C@@H](NCCCc1cccc(C(F)(F)F)c1)c1cccc2ccccc12 .
99.6

Entry C=CC(N)CCC(=O)O (stereo not given) has what cell viability?
99.4

----------
Kindly supply the reported cell viability values for the records listed here.
- System: Caco-2
- test: cell viability relative to DMSO; higher = less toxic
- measurementContext: 72 h; 10000 nM
Lab book: enter the figure in %, no units written.

cell viability for CCOc1ccc(Cc2cc([C@]34OC[C@](CO)(O3)[C@@H](O)[C@H](O)[C@H]4O)ccc2Cl)cc1 ?
103

Param item = CC(C)CC(NC(=O)OCC1c2ccccc2-c2ccccc21)C(=O)O (stereo in doubt) ; retrieve measured cell viability.
98.2

Sample COC1=C2C[C@@H](C)C[C@H](OC)[C@H](O)[C@@H](C)/C=C(\C)[C@H](OC(N)=O)[C@@H](OC)/C=C\C=C(/C)C(=O)NC(=CC1=O)C2=O — what was its cell viability?
29.2

What value of cell viability has been recorded for this entry: CCCCCn1cc(C(=O)NC23CC4CC(CC(C4)C2)C3)c(=O)c2cc(-c3ccccc3)ccc21
98.3

Requested read-out: cell viability. Entry: N[C@@H](Cc1ccc(O)cc1)C(=O)NCC(=O)NCC(=O)O
97.1

For the molecule O=C1COc2c(CCNCCN(C(=O)CCNCCc3ccc(Cl)c(Cl)c3)C3CCCCC3)ccc(O)c2N1 , what cell viability is on record?
97.9

For the molecule CC[C@H](NC(=O)c1c(O)c(-c2ccccc2)nc2ccccc12)c1ccccc1 , what cell viability is on record?
90

----------
- System: Vero E6
- test: cell viability relative to DMSO; higher = less toxic
- measurementContext: 72 h; 10 nM
For each of the molecules below, state its cell viability.
Field: numeric (%). Do not append units.

Recorded cell viability for O=C(Nc1ncc(SCCN2CCCC2)s1)[C@]1(c2ccc(S(=O)(=O)C3CC3)cc2)C[C@H]1C1CCCCC1 , please?
94.6

Reported cell viability for Cc1ccc(/C=C2\CNC/C(=C\c3ccc(C)cc3)C2=O)cc1 : what is it?
97.9

Which cell viability value is on record for Cc1cc(C(=O)Nc2cccc(C(=O)Nc3cccc(C(F)(F)F)c3)c2)on1 ?
99.4

Name the reported cell viability value associated with the molecule COc1ccc(S(=O)(=O)N2CCC[C@H]2C(=O)Nc2cc(C)cc(C)c2)cc1
102

// lookup cell viability for C[C@@H](NCCCc1cccc(C(F)(F)F)c1)c1cccc2ccccc12 [cinacalcet]
106

Recorded cell viability of CN1CCc2cc(Cl)c(O)cc2[C@@H](c2ccccc2)C1 , please.
95

If you can, please state the reported cell viability value of c1cnc2cc3c(cc2n1)[C@@H]1CNC[C@H]3C1 [varenicline] .
99.8

Sample O=C(O)c1ccc(Nc2ncc3c(n2)-c2ccc(Cl)cc2C(c2c(F)cccc2F)=NC3)cc1 [MLN8054] — what was its cell viability?
97.9

Data request, read-out cell viability, for CCCN(CCC)[C@H]1CCc2cccc(O)c2C1 [8-hydroxy-DPAT]
94.5

----------
- Tested on: HepG2
- test: cell viability relative to DMSO; higher = less toxic
- measurementContext: 72 h; 100 nM
experimentalEndpoint: cell viability (%)
Reply numerically in %, unit not repeated.

# lookup: cell viability of CCCCCCCCCCCCCCCCOc1nc2ccc(C)cc2c(=O)o1 [cetilistat]
113

Could you share which cell viability value was measured for C[C@]12CC[C@H](O)C[C@H]1CC[C@@H]1[C@@H]2C[C@@H](O)[C@]2(C)[C@@H](C3=CC(=O)OC3)CC[C@]12O [digoxigenin] ?
89.1

Value lookup for cell viability; key = FC(F)(F)c1ccccc1-c1cc(C(F)(F)F)c2[nH]c(C3=NOC4(CCCCC4)C3)nc2c1 [TC-I-2014]
97.4

Could you tell me which cell viability is on file for NCCOB(c1ccccc1)c1ccccc1 [2-APB] ?
91.2

So what does the record say about cell viability for O=C(CC(c1ccccc1)c1ccccc1)N1CCN(C(c2ccccc2)c2ccccc2)CC1 [Z160] ?
88.5

Query (compound): O=C(O)CCCc1c[nH]c2ccccc12 [3-indolebutyric-acid] ; field requested: cell viability
92.8

Using the record for COc1ccc(-n2c(C)c([N+](=O)[O-])c3ccc(O)cc32)cc1 [ID-8] , report its cell viability.
97.4

Return reported cell viability; argument: O=c1n(CC2CO2)c(=O)n(CC2CO2)c(=O)n1CC1CO1 (centres undefined) [teroxirone]
92.8

Given O=C(Nc1cccc(Cl)c1)Nc1ncc(CCNc2ncnc3ccsc23)s1 [SNS-314] , state its recorded cell viability.
76.3

Sample CC(C)c1ccccc1Cc1cc(C(=O)Nc2ccc(S(=O)(=O)c3ccccc3C(C)(C)C)cc2)c(O)c(O)c1O [TW-37] — what was its cell viability?
96.1

Need cell viability, item Cc1n[nH]c(C)c1Cc1sc2c(c1C(=O)N1C[C@H](O)CO1)c(=O)n(C)c(=O)n2CC(C)C
95

I am curious: what cell viability value has been reported for Cc1ccc(S(=O)(=O)/C=C/C#N)cc1 [BAY-11-7082] ?
101

Name the reported cell viability value associated with the compound N=C(N)c1ccc(/N=N/Nc2ccc(C(=N)N)cc2)cc1 [diminazene-aceturate]
90.2

Name the recorded cell viability for CC[C@@H]1C(=O)N(C)c2cnc(Nc3ccc(C(=O)N[C@H]4CC[C@H](N5CCN(CC6CC6)CC5)CC4)cc3OC)nc2N1C(C)C [volasertib] .
42.7

Sample Cc1ccc2c(c1)c1c3n2CCNC3CCC1 (centres undefined) [pirlindole] — what was its cell viability?
99.9

Name the recorded cell viability for O=C(O)CNC(=O)c1ccccc1I [2-iodohippuric-acid] .
97.3

Field request: cell viability | item: CCCCCCCCCCCCCCC[C@@H](O)[C@@H](N)CO [safingol]
80

// cell viability lookup, key: C=C1c2cccc(O)c2C(=O)C2=C(O)[C@]3(O)C(=O)C(C(N)=O)=C(O)[C@@H](N(C)C)[C@@H]3[C@@H](O)[C@H]12 [methacycline]
97.9

Using the record for CC(C)NC[C@@H](O)COc1ccc(CC(N)=O)cc1 (racemic) [atenolol-(+/-)] , report its cell viability.
98.9

# lookup: cell viability of COC1=C2C[C@@H](C)C[C@H](OC)[C@H](O)[C@@H](C)/C=C(\C)[C@H](OC(N)=O)[C@@H](OC)/C=C\C=C(/C)C(=O)NC(=CC1=O)C2=O [geldanamycin]
106

Look at this compound and give its reported cell viability. COc1ccc2cc1Oc1cc3c(cc1OC)CC[N+](C)(C)[C@H]3Cc1ccc(cc1)Oc1c(OC)c(OC)cc3c1[C@@H](C2)[N+](C)(C)CC3 [metocurine]
86.2

Item N[C@@H](Cc1ccc(O)cc1)C(=O)NCC(=O)NCC(=O)O [IMREG-1] has what recorded cell viability?
92

Value lookup for cell viability; key = C=CCc1cc(OC)c(O)c(C(=O)NCCO)c1 [alibendol]
101

May I ask what cell viability has been recorded for C[C@]12CC[C@H](O)CC1=CC[C@@H]1[C@@H]2CC[C@]2(C)C(=O)CC[C@@H]12 [PRASTERONE] ?
94.2

Look up cell viability for this compound: CC(C)(S)C(N)C(=O)O (stereo in doubt) [penicillamine-(racemic)]
110

Please look up its cell viability: Cn1c(N2CCCCS2(=O)=O)nc(C(=O)NCc2ccc(F)cc2)c(O)c1=O
105

Data request, read-out cell viability, for O=C1C2CCN(CC2)C1(CO)CO [PRIMA1]
81

Look up cell viability: CNc1cc(OC)c(C(=O)NC2CCN(Cc3ccccc3)C2C)cc1Cl (centres undefined) [nemonapride]
98.1

Which cell viability reading was recorded for the compound CC(C)N1Cc2cc(S(C)(=O)=O)ccc2N(CCN2CC=C(c3c[nH]c4cc(F)ccc34)CC2)S1(=O)=O ?
95.8

Given OCc1ccc(CO)o1 [2,5-furandimethanol] , state its recorded cell viability.
108

# input compound: Nc1ccc(C(=O)O)cc1 [potassium-p-aminobenzoate] ; wanted: its cell viability
109

# cell viability lookup, item C[C@]12CC[C@H](O)C[C@H]1CC[C@@H]1[C@@H]2CC[C@]2(C)[C@@H](C3=CC(=O)OC3)CC[C@]12O [digitoxigenin]
94.5

Value lookup for cell viability; key = C[C@@](Cc1ccc(O)c(O)c1)(NN)C(=O)O [carbidopa]
101

Consider the compound shown here: CC[C@]1(O)C[C@H]2CN(CCc3c([nH]c4ccccc34)[C@@](C(=O)OC)(c3cc4c(cc3OC)N(C=O)[C@H]3[C@@](O)(C(=O)OC)[C@H](OC(C)=O)[C@]5(CC)C=CCN6CC[C@]43[C@@H]65)C2)C1 [Vincristine (sulfate)] What is its recorded cell viability?
39.2
